- System: RARa homodimer (NR concentration 270 nM)
- Protocol description: PBM binding z-score (relative to random genomic background probes); higher = stronger binding; sequences stand for … in GC…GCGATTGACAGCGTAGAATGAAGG
Respond with satisfied for PBM binding z-score values of 0.2 and above, not satisfied for values below.

TCAGATAGGTAATACAGGTGAAAGTCGGCATCTA ... satisfied
CGTCCAAGGTCAAAGGAGGTCAGTGAAGACAGAT ... satisfied
CAGCCTAGGTCAGGGCCAGTATGGGAGGAACGTT ... not satisfied
ATACCAAGGTGATCGTGAGGTCGTTGTTACTAAC ... satisfied
TTACCAAGGTGAAAGGTCGATGATGCACGCCTTG ... not satisfied

(Q) Given the entry `ATATGTAGGTTATCGGGTCCTTCAGTTTGCGCAT` , answer whether its PBM binding z-score meets or surpasses 0.2.
(A) satisfied

(Q) Given the entry `TCATATAGGTAATACAGGTGAAAATCGGCATCTA` , answer whether its PBM binding z-score meets or surpasses 0.2.
(A) satisfied

(Q) Given the entry `CAAACTAGGTCAAGAGGTCTAAGTCCGCTTCCCG` , answer whether its PBM binding z-score meets or surpasses 0.2.
(A) satisfied

(Q) Given the entry `TAGCCCAGGTCATGCGGGCCAGTATAGTGTCGGC` , answer whether its PBM binding z-score meets or surpasses 0.2.
(A) not satisfied

###

- System: PXR homodimer (NR concentration 270 nM)
- Protocol description: PBM binding z-score (relative to random genomic background probes); higher = stronger binding; sequences stand for … in GC…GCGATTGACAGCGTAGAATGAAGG
Assign classes using reported PBM binding z-score values and the ranges low (below -0.07), medium (-0.07 to below 0.1), high (0.1 or more), please.

GCTTGTAGATCAAGGTTTAGAAAGACTAAGCTAA ... low
CCAGAGAGGTGAGAAGGTAACTCAGCCTCGATTA ... medium
TCGAGTAGGTTAGGGGCATTAAGAATGGCGTCGA ... high
TTACCAAGGAGAAAGGTCGTTGATGCACGCCTTG ... medium
ACTAGCAGGCCCAGGGTCACTCAAGATTAGTCCG ... medium
TCTATTAGTTGATTAGGGCAACCAAAACAGCGGA ... high
ATCGAAAGGTCGTGAGCTGAGTATACAGAAAGGC ... medium
CCTGCTAGGTCATGGTCAGCAAATCTACAGTATG ... low

(Q) Textbook exercise: identify the category of the sequence given here, `CCTCGGAGGCCAACAGGAGGTCAGAGCTGCCAGA` , according to its measured value.
(A) high

###

PBM binding z-score: recorded values
- Test system: RARa:RXR (NR concentration 270 nM, RXRa partner concentration 90 nM)
- Protocol description: PBM binding z-score (relative to random genomic background probes); higher = stronger binding; sequences stand for … in GC…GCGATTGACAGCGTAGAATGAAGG
Respond numerically, and do not add a unit to the figure.

Recorded results for 2 sequences are shown here.
GGACCAAGGTGAATAGGTCGTTGATGAGTAGGCG ... 1.74
CAAACTAGGTCAACGGAAGGTCAAAGTCCGCATG ... 7.48

(Q) Give its PBM binding z-score value. Item: `CGAACTAGGTAATTGACAGGACAGTGAATAGTAA`
(A) -0.274

(Q) Give its PBM binding z-score value. Item: `ACTATTAGTTGACACGAGGGCAACCGATAGGTTG`
(A) 1.74

(Q) Give its PBM binding z-score value. Item: `CCTAGCAGGCCAATCTGGGACACTCAAGGCTTGA`
(A) -0.753

(Q) Give its PBM binding z-score value. Item: `GGAACGAGGGCATTAGAGTTGATAGCATGGCGAT`
(A) 0.328

(Q) Give its PBM binding z-score value. Item: `AGTCAAGGTTCACTAGGTAACGTAAGATTCAGCT`
(A) 1.9

###

- System: PPARg:RXRa 90nM:30nM, anti-RXR (NR concentration 90 nM, RXRa partner concentration 30 nM)
- Protocol description: PBM binding z-score (relative to random genomic background probes); higher = stronger binding; sequences stand for … in GC…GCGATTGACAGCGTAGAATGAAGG
PBM binding z-score: recorded values

CAAACTAGGTCAAAGGTGAAAGTCGAGCCAACCA ... 13.5
TAGAGTAGGTTAGTCGGGGCATTCAGCCAACATA ... 1.33
GCAGACAGGTGAAACGCGGGTAACTCAGGGTGGC ... -0.458
TTACCAAGGTGAAAGGCCGTTGATGCACGCCTTG ... 4.9
TCTGCTAGGTCAACGCTGGTCAGCTAATCTGCTA ... 2.54
TCTTGTAGACCAACAGGAGGTTAAGAAAGATCGA ... 1.81
CGTCAAAGTTCAACTAAGGTAACGGAAAGCACGC ... 4.58
CCTAGCAGGCCAATCTGCGTCACTCAAGGCTTGA ... -1.21

(Q) Could you share what PBM binding z-score was measured for `ATATGTGGGTTAAGGGTCATTCAGGTTGGTTCGC` , tested on PPARg:RXRa 90nM:30nM, anti-RXR (NR concentration 90 nM, RXRa partner concentration 30 nM)?
(A) 11.3

(Q) Could you share what PBM binding z-score was measured for `GATACAGGGTCGAGGCCAGAGTACGCGTATTGAT` , tested on PPARg:RXRa 90nM:30nM, anti-RXR (NR concentration 90 nM, RXRa partner concentration 30 nM)?
(A) 0.515

(Q) Could you share what PBM binding z-score was measured for `ACTAGCAGGCCAAGGGTCACCCAAGATTAGTCCG` , tested on PPARg:RXRa 90nM:30nM, anti-RXR (NR concentration 90 nM, RXRa partner concentration 30 nM)?
(A) 9.09

###

- Tested on: VDR:RXRa (NR concentration 270 nM, RXRa partner concentration 90 nM)
- Protocol description: PBM binding z-score (relative to random genomic background probes); higher = stronger binding; sequences stand for … in GC…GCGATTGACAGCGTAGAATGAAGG
PBM binding z-score: recorded values
Respond numerically, and do not add a unit to the figure.

TCGAGTAGGTTACCAATGGGGCGTTCAGCTTTCT ... -0.111
TCTCGGAGGACACGAAAGATCAGAGCTCGACATC ... 0.0612
GGAACGAGGGCCAGTTGATAGCAGAGTTTGATGG ... -0.702
CCTCTGAGGACAGAAGGTCAGAGCTGTCCGCTTT ... 1.2

(Q) Could you share what PBM binding z-score was measured for `GGAACGAGGGCAAGTTGATAGGAGAGTTTGATGG` , tested on VDR:RXRa (NR concentration 270 nM, RXRa partner concentration 90 nM)?
(A) 0.886

(Q) Could you share what PBM binding z-score was measured for `CCTTACGGGTCACTCCAGGTTTTAGCATCGGAGT` , tested on VDR:RXRa (NR concentration 270 nM, RXRa partner concentration 90 nM)?
(A) 3.47

###

- System: VDR homodimer (NR concentration 270 nM)
- Protocol description: PBM binding z-score (relative to random genomic background probes); higher = stronger binding; sequences stand for … in GC…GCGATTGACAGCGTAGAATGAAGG
Measurement type: PBM binding z-score
Respond numerically, and do not add a unit to the figure.

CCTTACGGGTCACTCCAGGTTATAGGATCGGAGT ... 1.51

(Q) Give its PBM binding z-score value. Item: `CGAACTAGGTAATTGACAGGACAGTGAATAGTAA`
(A) -0.054

(Q) Give its PBM binding z-score value. Item: `GCTAGTTGGTCACTAAAAGGTCACACACCGGTCG`
(A) 2.13

(Q) Give its PBM binding z-score value. Item: `GATACCGGGTCAGCTAGAGGCCAGAGTATGGAAA`
(A) -0.166

(Q) Give its PBM binding z-score value. Item: `CGAACTAGGCCAGAACAGGACAGTGAAGGATGAT`
(A) -0.245

(Q) Give its PBM binding z-score value. Item: `GCTTACGGGTCAAAGGTTATAGGATGAATAGAAT`
(A) 1.65

###

- Test system: PPARg DBDmut:RXRa IVT, anti-PPARg (DBD mutation: PPARg1 K132A/R137A, NR concentration 270 nM, RXRa partner concentration 90 nM)
- Protocol description: PBM binding z-score (relative to random genomic background probes); higher = stronger binding; sequences stand for … in GC…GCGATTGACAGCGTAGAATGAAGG
Measurement type: PBM binding z-score
Respond numerically, and do not add a unit to the figure.

TCGAGTAGGTTAGTCGGGGGATTCAGCCAACATA ... 3.86
ATAAGTAGGTTATCGGGTCATTCAGTTTGCGCAT ... 5.22
TGAATGAGGTTATAAGAACAGGGAACGTTGCAAA ... 0.842
TAGCCAAGGTCATTGGGCCAGTATAGTACGCATC ... 1
TTACCAAGGTGATCTGAGGTCGTTGATCCAACTC ... 0.232
CAAACTAGGACACGAAAGGTCAAAGTCGAATGAC ... 2.48
CAAACTAGGTCACCGGAAGGTCAAAATCCGCATG ... 7.15
AGGATGAGGTTACCAAAGATCAGGGAAACGCTTG ... 0.557

(Q) Give its PBM binding z-score value. Item: `TCTAGTAGATCAAGCAGGTTAAGAAAGCCTGAGT`
(A) -0.251

(Q) Give its PBM binding z-score value. Item: `CCTATTAGTTGACCATAAGGGCTACCGAAGCTCG`
(A) 0.267

(Q) Give its PBM binding z-score value. Item: `CTGGAAAGGTCGTGCTCAGGTGAGTATACCAAAC`
(A) -0.0196

(Q) Give its PBM binding z-score value. Item: `CGTCCAAGGTCAGCAGGCCAGTGAAAGCGACGTG`
(A) -0.196
